# Test system: MAK
# details: concentration: 1 μM, replicates: in singlicate; n = 1

molecule: O=C(NCCCN1CCOCC1)c1cccc(Nc2nccc(Nc3ccc(Oc4ccccc4)cc3)n2)c1
testTarget: MAK
%Inh (%): 36
//
molecule: Cc1nnc(-c2ccc(C)c(-c3ccc(C(=O)Nc4ccc(NS(C)(=O)=O)cc4)cc3)c2)o1
testTarget: MAK
%Inh (%): 35
//
molecule: [2H]C([2H])(c1cccc(C(F)(F)F)c1C)n1ccn2c(=O)nc(N3CCOCC3)cc12
testTarget: MAK
%Inh (%): 17
//
molecule: Cc1cccc(Cn2ccn3c(=O)cc(N4CCOCC4)nc23)c1
testTarget: MAK
%Inh (%): 32
//
molecule: Cl.Nc1ncnc2occ(-c3ccc(NC(=O)Nc4cc(C(F)(F)F)ccc4F)cc3)c12
testTarget: MAK
%Inh (%): 6
//
molecule: Nc1nc(-c2ccc3c(N)n[nH]c3c2)cc(N2CCCC2)n1
testTarget: MAK
%Inh (%): 27
//
molecule: Fc1ccc(-c2ncn(CCCN3CCOCC3)c2-c2ccccn2)cc1
testTarget: MAK
%Inh (%): 0
//
molecule: CSc1ccc(-c2cc3ncnc(SCC(=O)O)c3s2)cc1
testTarget: MAK
%Inh (%): 29
//
molecule: Cc1nnc(-c2ccc3occ(-c4ccc(C(C)O)cc4)c3c2)o1 (centres unmarked)
testTarget: MAK
%Inh (%): 0
//
molecule: Cc1cccc(-c2nc(Nc3ccc4ncsc4c3)c3ccccc3n2)n1
testTarget: MAK
%Inh (%): 0
//
molecule: COc1ccc(Nc2nccc(N3CCC(NC(=O)Nc4cc(C)ccc4C)C3)n2)cc1 (centres unmarked)
testTarget: MAK;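 note: KINOMEscan kinase panel screen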
%Inh (%): 28
